Tested on: CP194
Assay: qHTS profiling for inhibitors of Plasmodium falciparum proliferation (AID 504749); also: nearly all actives have a fitted effect of over 60% in size
Details: P. falciparum in erythrocytes, SYBR Green DNA, 72 h; series mostly up to 28.7 µM
Results filed as inconclusive are left out. Active and inactive are the calls of the source. Calls follow the shape of the dose curve; as a rule, active = well fitted inhibition curve with a large enough effect; inconclusive = small, poorly fitted or top-dose-only effect; inactive = flat fitted curve, though single readings scatter.
Valid outcomes are listed here; reply with one: T (active), F (inactive)

What classification did O=C(O)[C@H]1C[C@@H](CP(=O)(O)O)CCN1 end up with in this test? F

Another: CO/N=C(/C(=O)N[C@@H]1C(=O)N2C(C(=O)O)=C(C[n+]3ccc(N)n3CCO)CS[C@H]12)c1csc(N)n1 F

Would you kindly repeat that for CN(C)CC[C@@](O)(c1ccccc1)c1ccccc1Cl ? T

Repeat with CN1[C@H]2CC(OC(=O)[C@H](CO)c3ccccc3)C[C@H]1[C@H]1O[C@H]12 (some centres undefined) F

Same question for C/C1=C2/[N-]C(C(CC(N)=O)[C@@]2(C)CCC(=O)NCC(C)OP(=O)([O-])O[C@H]2[C@@H](O)[C@@H](n3cnc4cc(C)c(C)cc43)O[C@@H]2CO)[C@]2(C)N=C(/C(C)=C3N=C(/C=C4N=C1C(CCC(N)=O)C\4(C)C)[C@@H](CCC(N)=O)[C@]\3(C)CC(N)=O)[C@@H](CCC(N)=O)[C@]2(C)CC(N)=O.CC(=O)O.[Co] (some centres undefined) please. F

Next compound up: CCN1CCN(C(=O)NC(C(=O)NC2C(=O)N3C(C(=O)O)=C(CSc4nnnn4C)CSC23)c2ccc(O)cc2)C(=O)C1=O (centres undefined) F

Follow-up entry: CO[C@H]1OC2O[C@@]3(C)CC[C@H]4[C@H](C)CC[C@@H]([C@H]1C)[C@@]24OO3 (some centres undefined) T

Next entry: Nc1nc2[nH]cc(CCc3ccc(C(=O)NC(CCC(=O)O)C(=O)O)cc3)c2c(=O)[nH]1 (centres undefined) T

Here is the next compound: C=C1NC(=O)c2cc(CN(C)c3ccc(C(=O)N[C@@H](CCC(=O)O)C(=O)O)s3)ccc2N1 F

* * *

Answer each item with its documented activity, negative = inhibition.
Assay: Stat Signaling Pathway (AID 446);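 also: ME-180 cervical cancer cells given 40 pM IL-6 alongside compound; SIE-controlled beta-lactamase reporter measured as 460/530 nm FRET emission ratio; % is scaled to controls: 0 for no effect and ±100 for the full control effect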
Settings: ME-180 (cervical carcinoma) SIE beta-lactamase reporter, IL-6 stimulated, 5 h; at 17.2 µM (top of the series) unless noted
Results filed as inconclusive are left out. Calls of active or inactive are those of the source. Calls follow the shape of the dose curve; as a rule, active = well fitted curve in either direction with a large enough effect (not every such curve was filed as active); inconclusive = small, poorly fitted or top-dose-only effect, or another doubt; inactive = flat fitted curve, though single readings scatter.

Could you share which activity, negative = inhibition value was measured for COc1ccc(C2C=C(c3ccc(Cl)cc3)Nc3nc(NC(C)=O)nn32)cc1 (centres undefined) ? -9.52% (inactive)

Cool, now Cc1ccc(C(=O)C2=C(O)C(=O)N(c3ncccn3)C2c2ccc(Cl)cc2)o1 (centres undefined) -10.8% (inactive)

Likewise for CCCNc1ncnc2c1cnn2-c1ccc(OC)cc1 ? -8.63% (inactive)

Next molecule up: FC(F)(F)c1cc(CO[C@@H]2CCCN[C@H]2c2ccccc2)cc(C(F)(F)F)c1 -14.5% [at 38 µM] (inactive)

Same thing, different molecule: O=C(Cc1ccc(Cl)cc1)Nc1cccc(-c2nnc(-c3ccco3)o2)c1 -1.67% (inactive)

Moving on to CCCCNC(=O)C(C#N)c1nc2ccccc2nc1N1CCN(Cc2ccc3c(c2)OCO3)CC1 (centres undefined) -8.12% (inactive)

Next molecule: COc1ccccc1C1(CC(=O)N2CCOCC2)CCOC(C(C)C)C1 (centres undefined) -0.0907% (inactive)

Okay, and CC(C)Cc1nc(NCCN2CCOCC2)c(C#N)c2c1COC(C)(C)C2 ? 19.2% (inactive)

Now consider COc1ccc(CN(C#N)c2nc(SC)nc(N(C)C)n2)cc1 and answer again. 2.92% (inactive)

Proceed to NCCN1C(=O)c2ccccc2[C@@]1(O)c1ccc(Cl)cc1 2.46% [at 7.69 µM] (inactive)

Follow-up item: O=C1CCc2nc3ccccc3c(=O)n2N1 -4.8% (inactive)

Same question, CC(=O)N[C@H](Cc1c[nH]c2ccccc12)C(=O)O this time 14.4% [at 7.69 µM] (inactive)

Param item: COc1cccc(/C(O)=C2/C(=O)C(=O)N(CCN(C)C)C2c2ccc(Br)cc2)c1 (centres undefined) 0.896% (inactive)

Also COc1ccc(CCNC(=O)c2ccc(=O)[nH]n2)cc1OC , if possible. 3.06% (inactive)

Similarly, COc1ccc(CSc2nnc3n(C)c(=O)c4c5c(sc4n23)CCCC5)cc1 ? 0.924% (inactive)

Next molecule: Cn1c(=O)c2c(nc(Br)n2CCSc2nc3ccccc3o2)n(C)c1=O 10.5% (inactive)

For CC1(C)Cc2c(c(N3CCOCC3)nc3snc(N)c23)CO1 then? -10.9% (inactive)

Request: COc1ccc(CSC2=NCCN2)cc1Cl 8.84% (inactive)

Consider next the molecule Cc1ccc2[nH]c3c(N4CCOCC4)ncnc3c2c1 in the same way. -10.6% (inactive)

Another molecule to look at: CN1[C@@H]2CC(OC(=O)[C@@H](CO)c3ccccc3)C[C@H]1[C@H]1O[C@H]12 (some centres undefined) 13.4% [at 38 µM] (inactive)

Next entry: C=CCOn1c(=O)c(-c2cc3ccccc3o2)[n+]([O-])c2ccccc21 -8.42% (inactive)

Please answer likewise for CCC(=O)O[C@@H]1CC(=O)O[C@H](C)CC=CC=C[C@@H](O)[C@H](C)C[C@H](CC=O)[C@H](O[C@H]2O[C@H](C)[C@@H](O[C@H]3C[C@@](C)(O)[C@@H](OC(=O)CC)[C@H](C)O3)[C@H](N(C)C)[C@H]2O)[C@H]1OC -1.1% (inactive)

Thanks! And CCOC(=O)C1/C(=N\O)CC(C)(O)C(C(=O)OCC)C1c1ccc(N(C)C)cc1 (centres undefined) ? -4.68% (inactive)

Can you check COc1ccccc1-c1nnc2n1N=C(c1ccc(O)c(O)c1)CS2 next? -15.4% (inactive)

Likewise for N#CC1(c2ccccc2)CCC(=NO)CC1 (centres undefined) ? 11.5% (inactive)

Can you check Brc1ccc2c(c1)CNc1c(ncnc1N1CCOCC1)O2 next? -3.65% (inactive)

Would you mind doing O=C1OC(Nc2ccc(Br)cc2F)c2ccccc21 (centres undefined) as well? 2.24% (inactive)

Okay, and COc1cccc(C=NCCNC(=O)c2nonc2N)c1O ? 7.79% (inactive)

Next record, please: COc1cc(N2C(=O)CSC23C(=O)Nc2ccccc23)cc(OC)c1OC (centres undefined) -2.69% (inactive)

And O=C(Oc1ccccc1)c1c(Cl)cccc1P(=O)(O)O ? 5.05% (inactive)

Another molecule to look at: CN1CCc2cc(O)c(O)cc2[C@H](c2ccccc2)C1 -12.3% [at 38 µM] (inactive)

Please give the result for COc1ccc(Nc2cc(C)nc3ccccc23)cc1 too. 5.77% (inactive)

Field entry: Cc1cc(C)nc(N(C#N)CC(=O)N(c2ccccc2)C(C)C)n1 7.49% (inactive)

Ok, now CC(O)(C#CCN1CCOCC1)c1ccccc1 (centres undefined) 7.2% (inactive)

Another molecule to look at: N#Cc1c(N2CCOCC2)nc(-c2ccco2)c2c1CCCC2 4.59% (inactive)

Another: CCc1cccc(C)c1N(C(=O)Cn1c(=O)[nH]c2ccccc21)C(C)COC (centres undefined) -1.06% (inactive)

Next entry: CCOc1ccc(C2=Nn3c(nnc3-c3cccnc3)SC2)cc1 -4.46% (inactive)

Could you do the same for N#CC1=C2SCC(O)(c3ccccc3)N2C(=O)CC1c1ccccc1 (centres undefined) , please? -21.7% (inactive)

And then COC(=O)CSc1nnc2n(-c3ccc(OC)cc3)c(=O)c3c4c(sc3n12)CCCCC4 , what is it? 5.65% (inactive)

Cool, now Cc1ccc2cc(CNC(C)C)c(=O)[nH]c2c1 -4.43% (inactive)

Now the same for CCN(CC)CCCN1C(=O)C(O)=C(C(=O)c2ccc(C)o2)C1c1ccc(C)o1 (centres undefined) 9.39% (inactive)

Again, but for CC(=O)OCc1c(COC(C)=O)[n+](=O)c2ccccc2n1[O-] 0.487% (inactive)

What do you get for CCOC(=O)c1c(C)n(C)c2ccc(OC)c(NC(=O)c3cccs3)c12 ? -16.1% (inactive)

COCCCNC(=O)C(C#N)c1nc2ccccc2nc1N1CCCC1 (centres undefined) , same question. 20.8% (inactive)

* * *

Tested on: JCK
Experiment: qHTS profiling for inhibitors of Plasmodium falciparum proliferation (AID 504749); also: nearly all actives have a fitted effect of over 60% in size; also: potency is read from the fitted curve at half-maximal effect
Settings: P. falciparum in erythrocytes, SYBR Green DNA, 72 h; series mostly up to 28.7 µM
Records with an inconclusive call do not appear. Active and inactive are the calls of the source. The call rests on the fitted dose curve; in most records, active means well fitted inhibition curve with a large enough effect; inconclusive means small, poorly fitted or top-dose-only effect; inactive means flat fitted curve, though single readings scatter.
property-name: Potency

Observe how each entry below is paired with its result.
Please report the recorded Potency for CC[C@H](C)[C@H]1O[C@]2(CC[C@@H]1C)C[C@@H]1C[C@@H](C/C=C(\C)[C@H](O[C@@H]3C[C@H](OC)[C@H](O[C@@H]4C[C@H](OC)[C@@H](O)[C@H](C)O4)[C@H](C)O3)[C@@H](C)/C=C/C=C3\CO[C@@H]4[C@H](O)C(C)=C[C@@H](C(=O)O1)[C@]34O)O2 . 15.8 µM (active)

Ok, now CC1OC(OC2C(O)CC(OC3C(O)CC(OC4CCC5(C)C(CCC6C5CCC5(C)C(C7=CC(=O)OC7)CCC65O)C4)OC3C)OC2C)CC(O)C1O (stereo unspecified) inactive

What would you report for CC1(C(=O)O)CCC2(C)CCC3(C)C(=CC(=O)C4C5(C)CCC(O)C(C)(C)C5CCC43C)C2C1 (stereo unspecified) ? inactive

Another molecule: C=C1C(n2cnc3c(=O)[nH]c(N)nc32)C[C@H](O)[C@H]1CO (stereo partly specified) inactive

For C[C@H]1OC(OC2C(O)[C@@H](O)C(OC3C(O)[C@@H](O)C(O)O[C@@H]3CO)O[C@@H]2CO)[C@H](O)C(O)C1N[C@H]1C=C(CO)[C@@H](O)[C@H](O)C1O (stereo partly specified) then? inactive

With those in mind, consider the next molecule.
Consider the molecule C[C@H](O)[C@@H]1C(=O)N2C(C(=O)O)=C(SCCN=CN)C[C@@H]12 and give its measured Potency. inactive
